Sourced from patent US5770597A

# Tested on: Streptococcus pyogenes 77A
# MEASUREMENT DESCRIPTION: In vitro antibacterial activity (MIC), agar two-fold dilution
# Assay type: cell-based
# CONDITION LABEL: Streptococcus pyogenes 77A; Mueller-Hinton agar, 10^7 CFU/ml, 37° C., 18 hours
MEASURE NAME: MIC (µg/mL)
Give bare numbers, in µg/mL.

Would you please look over these solved cases?
Inquiry: Which value of MIC has been reported for O=C(O)c1cn(C2CC2)c2c(Cl)c(N3CC4CCCNC4C3)c(F)cc2c1=O (stereo not shown) in the records?
Reply text: 0.098

Inquiry: What do you have for COc1c(N2C[C@@H]3CCCN[C@@H]3C2)c(F)cc2c(=O)c(C(=O)C[N+](=O)[O-])cn(C3CC3)c12.Cl (racemic) ?
Reply text: 0.391

Inquiry: One more molecule: COc1c(N2CC3CCCNC3C2)c(F)cc2c(=O)c(C(=O)C[N+](=O)[O-])cn(C3CC3)c12.Cl (racemic)
Reply text: 0.391

In the following, a different molecule is considered.
Inquiry: Looking for the measured MIC of Cl.O=C(C[N+](=O)[O-])c1cn(C2CC2)c2c(Cl)c(N3CC4CCCNC4C3)c(F)cc2c1=O (racemic) , can you help?
Reply text: 0.195

---

# Test system: Klebsiella aerogenes 1552E
# MEASUREMENT DESCRIPTION: In vitro antibacterial activity (MIC), agar two-fold dilution
# Type: cell-based
# CONDITION LABEL: Klebsiella aerogenes 1552E; Mueller-Hinton agar, 10^7 CFU/ml, 37° C., 18 hours
Field: MIC. Provide a value for each of the molecules that follow.
Numbers only, in µg/mL.

# count of solved cases: 3
Inquiry: Recorded MIC for Cl.O=C(C[N+](=O)[O-])c1cn(C2CC2)c2c(Cl)c(N3CC4CCCNC4C3)c(F)cc2c1=O (racemic) with Klebsiella aerogenes 1552E, please?
Reply text: 0.098

Inquiry: Next: COc1c(N2C[C@@H]3CCCN[C@@H]3C2)c(F)cc2c(=O)c(C(=O)C[N+](=O)[O-])cn(C3CC3)c12.Cl (racemic)
Reply text: 0.049

Inquiry: Another molecule to check: O=C(O)c1cn(C2CC2)c2c(Cl)c(N3CC4CCCNC4C3)c(F)cc2c1=O (stereo not shown)
Reply text: 0.049

More entries:
Inquiry: Find MIC (Klebsiella aerogenes 1552E) for the entry COc1c(N2CC3CCCNC3C2)c(F)cc2c(=O)c(C(=O)C[N+](=O)[O-])cn(C3CC3)c12.Cl (racemic)
Reply text: 0.013

---

# Test system: Staphylococcus aureus SG 511
# MEASUREMENT DESCRIPTION: In vitro antibacterial activity (MIC), agar two-fold dilution
# Assay type: cell-based
# CONDITION LABEL: Staphylococcus aureus SG 511; Mueller-Hinton agar, 10^7 CFU/ml, 37° C., 18 hours
MEASURE NAME: MIC
Please give the number followed by its unit.

For orientation, consider the following solved cases.
Inquiry: Requested field: MIC. Item: COc1c(N2CC3CCCNC3C2)c(F)cc2c(=O)c(C(=O)C[N+](=O)[O-])cn(C3CC3)c12.Cl (racemic) [C]
Reply text: 0.098 µg/mL

Inquiry: Also check COc1c(N2C[C@@H]3CCCN[C@@H]3C2)c(F)cc2c(=O)c(C(=O)C[N+](=O)[O-])cn(C3CC3)c12.Cl (racemic) [D]
Reply text: 0.195 µg/mL

Inquiry: Record: O=C(O)c1cn(C2CC2)c2c(Cl)c(N3CC4CCCNC4C3)c(F)cc2c1=O (stereo not shown) [A]
Reply text: 0.025 µg/mL

// next entry
Inquiry: Fill in: MIC of Cl.O=C(C[N+](=O)[O-])c1cn(C2CC2)c2c(Cl)c(N3CC4CCCNC4C3)c(F)cc2c1=O (racemic) [B] is ___
Reply text: 0.098 µg/mL
